Origin of the recorded values: patent US10035792B2

# experimental.system: HSP90α (Homo sapiens (Human))
# test.details: Fluorescence polarization (FP) HSP90-alpha target binding assay
# study.conditions: fluorescence polarization; read-out: Target binding ability HSP90α FP IC50
pIC50: −log10 of the molar value.
value.type: pIC50

Before answering, review these 5 worked examples.
chemical.smiles | pIC50
COCCCNC(=O)c1noc(-c2cc(C(C)C)c(O)cc2O)c1-c1ccc2c(c1)CCN(C)C2 | 7.00 to 7.70
CCNC(=O)c1noc(-c2cc(Cl)c(O)cc2O)c1-c1ccc2c(c1)CCN(C)C2 | 7.00 to 7.70
CC(C)c1cc(-c2onc(C(=O)NCCF)c2-c2ccc3c(c2)CCN(C)C3)c(O)cc1O | > 7.70
CCNC(=O)c1onc(-c2cc(C(C)C)c(O)cc2O)c1-c1ccc2c(c1)CCNCC2 | > 7.70
CC(C)c1cc(-c2noc(C(=O)NCCCO)c2-c2ccc3c(c2)CCN(C)C3)c(O)cc1O | > 7.70

Asked: Quick check: pIC50 of CNC(=O)c1noc(-c2cc(C(C)C)c(O)cc2O)c1-c1ccc2c(c1)CCN(C)C2 ?
Given back: > 7.70

Asked: Quick check: pIC50 of CCNC(=O)c1onc(-c2cc(C(C)C)c(O)cc2O)c1-c1ccc2c(c1)CCN(CCF)C2 ?
Given back: > 7.70

---

List of concentration at 0.5 h values.
# test.details: in vivo
# Parameters: species or system SD rats
# study.conditions: male, SD, rat, iv, 1 mg/kg, pulmonary concentration (nM)
# Method: SD rats were used as the subject animals. The drug concentrations in plasma, lung and breast tissue were measured by LC/MS/MS method at different times after the compound of Example 67 was intravenously injected at the tails of rats. The tissue distribution of the compounds of the present invention in rats was studied and their pharmacokinetic characteristics were evaluated. 2.1 Experimental Drugs: Luminespib, Ganetespib and the compound of Example 67. […]
Your answer should be a plain number; it is taken to be in nM.

Before answering, review these 2 worked examples.
chemical.smiles | concentration at 0.5 h [nM]
CC(C)c1cc(-c2n[nH]c(=O)n2-c2ccc3c(ccn3C)c2)c(O)cc1O | 1010
CCNC(=O)c1noc(-c2cc(C(C)C)c(O)cc2O)c1-c1ccc(CN2CCOCC2)cc1 | 1000

Asked: Quick check: concentration at 0.5 h of CCNC(=O)c1onc(-c2cc(C(C)C)c(O)cc2O)c1-c1ccc2c(c1)CCNC2 ?
Given back: 3040

---

# test.details: in vivo
# Set-up: species or system SD rats
# study.conditions: male, SD, rat, iv, 1 mg/kg, concentration in breast tissue (nM)
value.type: concentration at 24 h (nM)
Your answer should be a plain number; it is taken to be in nM.

Asked: Quick check: concentration at 24 h of CCNC(=O)c1onc(-c2cc(C(C)C)c(O)cc2O)c1-c1ccc2c(c1)CCNC2 ?
Given back: 199

---

List of concentration at 6 h values.
# test.details: in vivo
# Design: species or system SD rats
# study.conditions: male, SD, rat, iv, 1 mg/kg, concentration in breast tissue (nM)
# Method: SD rats were used as the subject animals. The drug concentrations in plasma, lung and breast tissue were measured by LC/MS/MS method at different times after the compound of Example 67 was intravenously injected at the tails of rats. The tissue distribution of the compounds of the present invention in rats was studied and their pharmacokinetic characteristics were evaluated. 2.1 Experimental Drugs: Luminespib, Ganetespib and the compound of Example 67. […]
Your answer should be a plain number; it is taken to be in nM.

chemical.smiles | concentration at 6 h, nM
CCNC(=O)c1onc(-c2cc(C(C)C)c(O)cc2O)c1-c1ccc2c(c1)CCNC2 | 376
CCNC(=O)c1noc(-c2cc(C(C)C)c(O)cc2O)c1-c1ccc(CN2CCOCC2)cc1 | 61.4

Proceeding to the next compound to report its concentration at 6 h.
Asked: Quick check: concentration at 6 h of CC(C)c1cc(-c2n[nH]c(=O)n2-c2ccc3c(ccn3C)c2)c(O)cc1O ?
Given back: 70.9

---

# test.details: in vivo
# Design: species or system SD rats
# study.conditions: male, SD, rat, iv, 1 mg/kg, plasma concentration (nM)
List of concentration at 0.5 h values.
Your answer should be a plain number; it is taken to be in nM.

Before answering, review these 2 worked examples.
chemical.smiles | value.type | value.observed
CCNC(=O)c1onc(-c2cc(C(C)C)c(O)cc2O)c1-c1ccc2c(c1)CCNC2 | concentration at 0.5 h | 115
CC(C)c1cc(-c2n[nH]c(=O)n2-c2ccc3c(ccn3C)c2)c(O)cc1O | concentration at 0.5 h | 267

Proceeding to the next molecule to report its concentration at 0.5 h.
Asked: Quick check: concentration at 0.5 h of CCNC(=O)c1noc(-c2cc(C(C)C)c(O)cc2O)c1-c1ccc(CN2CCOCC2)cc1 ?
Given back: 67.1

---

# test.details: in vivo
# Set-up: species or system SD rats
# study.conditions: male, SD, rat, iv, 1 mg/kg, plasma concentration (nM)
value.type: concentration at 6 h
Write the quantity with the unit trailing the number.

compound | value.observed
CC(C)c1cc(-c2n[nH]c(=O)n2-c2ccc3c(ccn3C)c2)c(O)cc1O [Ganetespib] | 4.46 nM

Proceeding to the next compound to report its concentration at 6 h.
Asked: Quick check: concentration at 6 h of CCNC(=O)c1onc(-c2cc(C(C)C)c(O)cc2O)c1-c1ccc2c(c1)CCNC2 [Example 67] ?
Given back: 9.98 nM

---

# experimental.system: HSP90α (Homo sapiens (Human), UniProt P07900)
# test.details: Fluorescence polarization (FP) HSP90-alpha target binding assay
# study.conditions: fluorescence polarization; read-out: Target binding ability HSP90α FP IC50
pIC50: −log10 of the molar value.
value.type: pIC50

Before answering, review these 8 worked examples.
chemical.smiles | pIC50
CC(C)NC(=O)c1onc(-c2cc(C(C)C)c(O)cc2O)c1-c1ccc2c(c1)CCN(C)C2 | > 7.70
CCNC(=O)c1noc(-c2cc(C(C)C)c(O)cc2O)c1-c1cc2c(s1)CCN(C)CC2 | > 7.70
CCNC(=O)c1noc(-c2cc(Br)c(O)cc2O)c1-c1ccc2c(c1)CCN(C)C2 | 7.00 to 7.70
CCNC(=O)c1noc(-c2cc(C(C)C)c(O)cc2O)c1-c1cc2c(s1)C(C)(C)NCC2 | > 7.70
CCNC(=O)c1noc(-c2cc(C(C)C)c(O)cc2O)c1-c1ccc2c(c1)CCN(C(=O)CN1CCOCC1)C2 | 7.00 to 7.70
CCNC(=O)c1noc(-c2cc(C(C)C)c(O)cc2O)c1-c1ccc2c(c1)CCCN2C | 7.00 to 7.70
CCCNC(=O)c1noc(-c2cc(C(C)C)c(O)cc2O)c1-c1ccc2c(c1)CCN(C)C2 | 7.00 to 7.70
CCNC(=O)c1noc(-c2cc(C)c(O)cc2O)c1-c1ccc2c(c1)CCN(C)C2 | > 7.70

Asked: Form entry - test system: HSP90α (Homo sapiens (Human), UniProt P07900); read-out: pIC50; compound: CCNC(=O)c1onc(-c2cc(C(C)C)c(O)cc2O)c1-c1ccc2c(c1)CCNC2
Given back: > 7.70

Asked: Form entry - test system: HSP90α (Homo sapiens (Human), UniProt P07900); read-out: pIC50; compound: CCNC(=O)c1onc(-c2cc(C(C)C)c(O)cc2O)c1-c1ccc2c(c1)CCN(CCOC)C2
Given back: > 7.70

Asked: Form entry - test system: HSP90α (Homo sapiens (Human), UniProt P07900); read-out: pIC50; compound: CC(C)c1cc(-c2onc(C(=N)NC#N)c2-c2ccc3c(c2)CCN(C)C3)c(O)cc1O
Given back: > 7.70

Asked: Form entry - test system: HSP90α (Homo sapiens (Human), UniProt P07900); read-out: pIC50; compound: CCNC(=O)c1noc(-c2cc(C(C)C)c(O)cc2O)c1-c1ccc2c(c1)CCN(CCOC)C2
Given back: > 7.70

Asked: Form entry - test system: HSP90α (Homo sapiens (Human), UniProt P07900); read-out: pIC50; compound: CCCN1CCc2cc(-c3c(C(=O)NCC)noc3-c3cc(C(C)C)c(O)cc3O)ccc2C1
Given back: 7.00 to 7.70

---

# experimental.system: HSP90α (Homo sapiens (Human), UniProt P07900)
# test.details: Fluorescence polarization (FP) HSP90-alpha target binding assay
# study.conditions: fluorescence polarization; read-out: Target binding ability HSP90α FP IC50
value.type: IC50

chemical.smiles | value.observed
CCNC(=O)c1noc(-c2cc(C(C)C)c(O)cc2O)c1-c1ccc2c(c1)CCN(CCF)C2 | 0.02 to 0.1 µM

Asked: Quick check: IC50 of CCc1cnc(-c2noc(-c3cc(C(C)C)c(O)cc3O)c2-c2ccc3c(c2)CCN(C)C3)[nH]1 ?
Given back: 0.02 to 0.1 µM

Asked: Quick check: IC50 of CCNC(=O)c1noc(-c2cc(C(C)C)c(O)cc2O)c1-c1ccc2c(c1)CCN(CC(C)C)C2 ?
Given back: 0.02 to 0.1 µM

Asked: Quick check: IC50 of CCNC(=O)c1noc(-c2cc(CC)c(O)cc2O)c1-c1ccc2c(c1)CCN(C)C2 ?
Given back: < 0.02 µM
